- Tested on: Vero E6
- test: cell viability relative to DMSO; higher = less toxic
- measurement.conditions: 72 h; 1000 nM
value.kind: cell viability (%)
Give bare numbers, in %.

Problem: Which measured cell viability value corresponds to CC1=NN(c2ccc(C(=O)O)cc2)C(=O)C1=Cc1ccc(-c2cc(C)c(C)cc2[N+](=O)[O-])o1 [C646] ?
Solution: 100

Problem: Entry CN(C)C/C=C/C(=O)Nc1ccc(C(=O)Nc2cccc(Nc3ncc(Cl)c(-c4c[nH]c5ccccc45)n3)c2)cc1 [THZ1] please
Solution: 44.4

Items follow; give cell viability for each.
1. CC(CCc1ccc(O)cc1)NCCc1ccc(O)c(O)c1 (stereo unspecified) [dobutamine]
2. CCCSc1ccc2[nH]c(NC(=O)OC)nc2c1 [albendazole]
3. CCOC(=O)/C=C(C)/C=C/C=C(C)/C=C/c1c(C)cc(OC)c(C)c1C [etretinate]
4. C=C1C(=O)[C@]23[C@H](O)[C@H]1CC[C@H]2[C@@]12CO[C@]3(O)[C@@H](O)[C@@H]1C(C)(C)CC[C@@H]2O [Oridonin (Isodonol)]

Solution:
1. 98.5
2. 80.1
3. 98.5
4. 95.4

----------
- System: Caco-2
- test: drug sensitivity score (DSS) for viability; higher = more toxic; extreme values may be limits of the assay
- measurement.conditions: 72 h
value.kind: drug sensitivity score

Problem: Which measured drug sensitivity score value corresponds to COc1cc(-c2ccc(=O)[nH]n2)ccc1OC(F)F [zardaverine] ?
Solution: 0

Problem: Entry COc1cc(Cc2cnc(N)nc2N)c(C(C)C)cc1OC [Ro-3] please
Solution: 0

Problem: Entry CC(C)[N+](C)(CCOC(=O)C1c2ccccc2Oc2ccccc21)C(C)C [propantheline] please
Solution: 0

Problem: Entry CC1=C(C(=O)O)N2C(=O)[C@@H](NC(=O)[C@H](N)c3ccccc3)[C@H]2SC1 [cephalexin] please
Solution: 0

Problem: Entry CC=CC1=C(C(=O)O)N2C(=O)[C@@H](NC(=O)[C@H](N)c3ccc(O)cc3)[C@H]2SC1 (mixture of isomers) [cefprozil] please
Solution: 0

Items follow; give drug sensitivity score for each.
1. Cc1cc(C(=O)Nc2nc3cccc(Cl)c3n2[C@@H]2CCCCN(C(=O)/C=C/CN(C)C)C2)ccn1 [EGF816]
2. Brc1ccc(NC2C3CC4CC(C3)CC2C4)cc1 (centres undefined) [bromantan]
3. CC(C)c1cc(-c2ccc(F)c3ccccc23)nc(N)n1
4. COC[C@H](NC(=O)c1cnc(C)s1)C(=O)N[C@@H](COC)C(=O)N[C@@H](Cc1ccccc1)C(=O)[C@@]1(C)CO1 [oprozomib]

Solution:
1. 2.1
2. 0
3. 0
4. 27.4

----------
- Test system: HepG2
- test: cell viability relative to DMSO; higher = less toxic
- measurement.conditions: 72 h; 1000 nM
I'd appreciate it if you could supply cell viability values for the items below.
Answers are plain numbers, in %.

Please review the entries below; each comes with its answer.
Problem: Which measured cell viability value corresponds to COCCCOc1ccnc(C[S+]([O-])c2nc3ccccc3[nH]2)c1C (centres undefined) ?
Solution: 94.6

Problem: Entry C[C@H](Cc1ccc(O)c(O)c1)[C@@H](C)Cc1ccc(O)c(O)c1 please
Solution: 101

Problem: Entry N[C@H]1C(O)O[C@H](CO)[C@@H](O)[C@@H]1O (mixture of isomers) please
Solution: 100

// switching to the query compound
Problem: Which measured cell viability value corresponds to COc1cnc(-c2ccc(Cn3c(CC(C)(C)C(=O)O)c(SC(C)(C)C)c4cc(OC[C@@H]5Cc6ccccc6N5C(C)=O)ccc43)cc2)nc1 ?
Solution: 102

----------
- Test system: U2OS
- test: cell viability relative to DMSO; higher = less toxic
- measurement.conditions: 72 h; 1 nM
value.kind: cell viability (%)
One number for each entry, in %.

Problem: Give the reported cell viability for FC(F)(F)c1cc(NC(=S)Nc2ccc(Br)cc2-c2nnn[nH]2)cc(C(F)(F)F)c1 (system: U2OS).
Solution: 99.9

Problem: Entry CN1CCN(c2ccc(/C=C(\C#N)c3ccccc3Br)cc2)CC1 [DG-172] please
Solution: 105

Items follow; give cell viability for each.
1. C[C@@H]1[C@H](O)[C@@H](C)/C=C/C=C/C=C/C=C/C=C/C=C/C=C/[C@H](O[C@@H]2O[C@H](C)[C@@H](O)[C@H](N)[C@@H]2O)C[C@@H]2O[C@](O)(C[C@@H](O)C[C@@H](O)[C@H](O)CC[C@@H](O)C[C@@H](O)CC(=O)O[C@H]1C)C[C@H](O)[C@H]2C(=O)O [amphotericin-b]
2. CC(C)(Cc1ccc2ccccc2c1)NC[C@@H](O)COc1cccc(Cl)c1C#N [NPS-2143]
3. O=C(O)c1ccc(N2N=C(Cc3ccccc3)/C(=C\c3ccc(-c4ccccc4F)o3)C2=O)cc1 [GS-143]
4. CN(C)CC/C=C1/c2ccccc2Sc2ccc(Cl)cc21 [chlorprothixene]

Solution:
[101, 100, 105, 104]

----------
- Tested on: Vero E6
- test: cell viability relative to DMSO; higher = less toxic
- measurement.conditions: 72 h; 10000 nM
I'd appreciate it if you could supply cell viability values for the items below.

Problem: Which measured cell viability value corresponds to COc1ccc(C2=N[C@@H](c3ccc(Cl)cc3)[C@@H](c3ccc(Cl)cc3)N2C(=O)N2CCNC(=O)C2)c(OC(C)C)c1 ?
Solution: 63.7%

Items follow; give cell viability for each.
1. CCOc1cn(-c2ccc(F)cc2C)nc1C(=O)Nc1ccc(Oc2ccnc3cc(OC)c(OC)cc23)c(F)c1
2. C[C@H]1CNCCCN1S(=O)(=O)c1cccc2cncc(F)c12

Solution:
["100%", "88.7%"]

Items follow; give cell viability for each.
1. O=C(CCCN1CCC(n2c(=O)[nH]c3ccccc32)CC1)c1ccc(F)cc1
2. COc1cc2c(cc1OC)-c1c(C)c3ccc(OC)c(OC)c3c[n+]1CC2 [dehydrocorydaline]

Solution:
1. 95.9%
2. 98.5%

----------
I'd appreciate it if you could supply SARS-CoV-2 infection rate values for the items below.
- Test system: A549-ACE2 infected with SARS-CoV-2
- test: SARS-CoV-2 infection rate relative to DMSO; higher = more infection
- measurement.conditions: 3 µM; 24 h
One number for each entry, in %.

Problem: Give the reported SARS-CoV-2 infection rate for C=C1C(=O)[C@]23[C@H](O)[C@H]1CC[C@H]2[C@@]12CO[C@]3(O)[C@@H](O)[C@@H]1C(C)(C)CC[C@@H]2O [Oridonin (Isodonol)] (system: A549-ACE2 infected with SARS-CoV-2).
Solution: 101

Problem: Entry Fc1ccc(-n2cc(CCCCN3CCC4(CC3)OCc3ccccc34)c3ccccc32)cc1 [siramesine] please
Solution: 26

// switching to the query compound
Problem: Give the reported SARS-CoV-2 infection rate for Cc1[nH]c(/C=C2\C(=O)Nc3ccc(F)cc32)c(C)c1C(=O)NCCN1CCCC1 [toceranib] (system: A549-ACE2 infected with SARS-CoV-2).
Solution: 80

----------
- System: U2OS
- test: cell viability relative to DMSO; higher = less toxic
- measurement.conditions: 72 h; 10000 nM
value.kind: cell viability (%)
Numbers only, in %.

Please review the entries below; each comes with its answer.
Problem: Give the reported cell viability for O=S1(=O)OC(c2ccc(O)cc2)(c2ccc(O)cc2)c2ccccc21 [phenolsulfonphthalein] (system: U2OS).
Solution: 96.4

Problem: Entry COc1cc(Cc2cnc(N)nc2N)c(C(C)C)cc1OC [Ro-3] please
Solution: 102

Problem: Entry Cc1nc2cnc3ccc(C#Cc4cccnc4)cc3c2n1-c1ccc(C(C)(C)C#N)cc1 [BAG-956] please
Solution: 23.8

Problem: Entry C=C1CC/C=C(\C)CC[C@@H]2[C@@H]1CC2(C)C [g-caryophyllene] please
Solution: 99

Problem: Entry CCC(CC)[C@H](NC(C)=O)[C@@H]1[C@H](O)[C@@H](C(=O)O)C[C@H]1NC(=N)N [peramivir] please
Solution: 104

Problem: Entry O=C1[C@@H]2[C@H]3CC[C@H](C3)[C@@H]2C(=O)N1CCCCN1CCN(c2ncccn2)CC1 [tandospirone] please
Solution: 97.7

Items follow; give cell viability for each.
1. CC1=C(C(=O)O)N2C(=O)[C@@H](NC(=O)[C@H](N)c3ccccc3)[C@H]2SC1 [cephalexin]
2. CCOc1ccc(S(=O)(=O)O)c2cccnc12 [actinoquinol]
3. CC(C)(C)C(=O)OCC(=O)[C@H]1CC[C@H]2[C@@H]3CCC4=CC(=O)CC[C@]4(C)[C@H]3CC[C@]12C [desoxycorticosterone-pivalate]

Solution:
1: 104; 2: 95.5; 3: 97.9

----------
- System: U2OS
- test: cell viability relative to DMSO; higher = less toxic
- measurement.conditions: 72 h; 1 nM
I'd appreciate it if you could supply cell viability values for the items below.
Answers are plain numbers, in %.

Items follow; give cell viability for each.
1. Cc1cc(C(=O)Nc2nc3cccc(Cl)c3n2[C@@H]2CCCCN(C(=O)/C=C/CN(C)C)C2)ccn1
2. COc1cnc(-c2ccc(Cn3c(CC(C)(C)C(=O)O)c(SC(C)(C)C)c4cc(OC[C@@H]5Cc6ccccc6N5C(C)=O)ccc43)cc2)nc1
3. N#Cc1cnc2cnc(NCc3cccnc3)cc2c1Nc1ccc(F)c(Cl)c1

Solution:
[101, 102, 96.3]
